target: Bromodomain testis-specific protein [21-137,251-382] (Homo sapiens, UniProt Q58F21); construct: 21-137,251-382; assay: BROMOscan Assay
pKd: −log10 of the molar value.
Measurement name: pKd

COC(=O)C[C@@H]1N=C(c2ccc(Cl)cc2)c2c(sc(C(=O)NCCOCCNC(=O)C[C@@H]3N=C(c4ccc(Cl)cc4)c4c(sc(C)c4C)-n4c(C)nnc43)c2C)-n2c(C)nnc21 ... 10.41

---

target: Bromodomain-containing protein 2 [71-194,348-455] (Homo sapiens); construct: 71-194,348-455; assay: Bromodomains Assay for DiscoveRx Gene Symbol
pKi: −log10 of the molar value.
Measurement name: pKi

Cc1sc2c(c1C)C(c1ccc(Cl)cc1)=NC(CC(=O)NCCOCCOCCOCCOCCOCCOCCOCCNC(=O)C[C@@H]1N=C(c3ccc(Cl)cc3)c3c(sc(C)c3C)-n3c(C)nnc31)c1nnc(C)n1-2 (stereo partly specified) ... 10.62

---

molecular target: Bromodomain-containing protein 4 [44-168] (Human, UniProt O60885); construct: 44-168; assay: AlphaScreen BRD Binding Assay; conditions: pH 7.5; 25 °C
Class boundaries, taken from values of IC50, are as follows: range 1: < 10 nM; range 2: ≥ 10 nM and < 60 nM; range 3: ≥ 60 nM

COc1cc2c(cc1-c1c(C)noc1C)ncc1c2n([C@H](C)c2ccccn2)c(=O)n1CC(=O)NCCNC(=O)C[C@@H]1N=C(c2ccc(Cl)cc2)c2c(sc(C)c2C)-n2c(C)nnc21 ... range 3
COc1cc2c(cc1-c1c(C)noc1C)ncc1c2n([C@H](C)c2ccccn2)c(=O)n1CC(=O)NCCOCCNC(=O)C[C@@H]1N=C(c2ccc(Cl)cc2)c2c(sc(C)c2C)-n2c(C)nnc21 ... range 2
COC(=O)CC1N=C(c2ccc(Cl)cc2)c2c(sc(C(=O)NCCOCCOCCOCCNC(=O)Cn3c(=O)n([C@H](C)c4ccccn4)c4c5cc(OC)c(-c6c(C)noc6C)cc5ncc43)c2C)-n2c(C)nnc21 (some centres undefined) ... range 2
COc1cc2c(cc1-c1c(C)noc1C)ncc1c2n([C@H](C)c2ccccn2)c(=O)n1CC(=O)NCCOCCOCCNC(=O)Cn1c(=O)n([C@@H](C)c2ccccn2)c2c3cc(OC)c(-c4c(C)noc4C)cc3ncc21 ... range 3
COc1cc2c(cc1-c1c(C)noc1C)ncc1c2n([C@H](C)c2ccccn2)c(=O)n1CC(=O)NCCOCCOCCOCCNC(=O)Cn1c(=O)n([C@@H](C)c2ccccn2)c2c3cc(OC)c(-c4c(C)noc4C)cc3ncc21 ... range 2
COc1cc2c(cc1-c1c(C)noc1C)ncc1c2n([C@H](C)c2ccccn2)c(=O)n1CC(=O)NCCOCCOCCOCCOCCOCCOCCOCCNC(=O)C[C@@H]1N=C(c2ccc(Cl)cc2)c2c(sc(C)c2C)-n2c(C)nnc21 ... range 2
COC(=O)C[C@@H]1N=C(c2ccc(Cl)cc2)c2c(sc(C(=O)NCCOCCNC(=O)c3sc4c(c3C)C(c3ccc(Cl)cc3)=N[C@H](CC(=O)OC)c3nnc(C)n3-4)c2C)-n2c(C)nnc21 ... range 1
COC(=O)C[C@@H]1N=C(c2ccc(Cl)cc2)c2c(sc(C(=O)NCCOCCOCCOCCOCCOCCOCCOCCNC(=O)C[C@@H]3N=C(c4ccc(Cl)cc4)c4c(sc(C)c4C)-n4c(C)nnc43)c2C)-n2c(C)nnc21 ... range 1

Every entry's value here was drawn from BindingDB's records for doi:10.1038/nchembio.2209.
